study-target: γ-secretase complex (Homo sapiens, UniProt P49768)
assay-summary: APP-C99 counter assay (GSI reporter assay)
Format: cell-based
assay-context: 14p APP assay DR; bottom constrained to Emax of positive control LY-411575
Procedure: To this end, we used a previously established reporter gene-based GSI assay (APP-C99) (Fig. 3A), which measures γ-secretase activity through cleavage of amyloid precursor protein (APP), another protein processed by the γ-secretase complex[24] […] A DMSO plate was read before measuring luciferase activity of compound spotted plates. […] The area-under-the-curve (AUC) was calculated on dose–response curves using Graphpad Prism.
measurement-type: Hill-slope

compound=O=C(O)c1ccccc1C(=O)N1CCC2(CC1)OCCc1c2[nH]c2ccccc12 observed=-0.0365

(a) COc1cc(Nc2cncc(-c3cccc(NC(C)=O)c3)n2)cc(OC)c1OC
(b) COc1ccc2cc(C(=O)N3Cc4cn(CCO)nc4C3)n(C)c2c1
Task item: Please compare: a and b . Report which one has the smaller Hill-slope value. Refer to your chosen item by its label in the answer.
Reply: a
(a: 0.0468, b: 0.423)
